Values from ChEMBL document CHEMBL4251632

assay.info: Plasma concentration in Sprague-Dawley rat at 0.5 mg/kg, iv administered as single dose measured after 5 mins by LC-MS/MS analysis
Type: ADME, organism-based
observable: concentration at 5 min (ng/mL)
Report only the number, with the unit ng/mL understood.

Fill blank: measured concentration at 5 min of the compound Fc1ccc(N2CCN(CCCc3c[nH]c4ccc(F)cc34)CC2)c(-c2ccccc2)c1 is ____.
342

* * *

system.name: Sodium-dependent serotonin transporter (Rattus norvegicus)
Sequence (P31652 whole entry): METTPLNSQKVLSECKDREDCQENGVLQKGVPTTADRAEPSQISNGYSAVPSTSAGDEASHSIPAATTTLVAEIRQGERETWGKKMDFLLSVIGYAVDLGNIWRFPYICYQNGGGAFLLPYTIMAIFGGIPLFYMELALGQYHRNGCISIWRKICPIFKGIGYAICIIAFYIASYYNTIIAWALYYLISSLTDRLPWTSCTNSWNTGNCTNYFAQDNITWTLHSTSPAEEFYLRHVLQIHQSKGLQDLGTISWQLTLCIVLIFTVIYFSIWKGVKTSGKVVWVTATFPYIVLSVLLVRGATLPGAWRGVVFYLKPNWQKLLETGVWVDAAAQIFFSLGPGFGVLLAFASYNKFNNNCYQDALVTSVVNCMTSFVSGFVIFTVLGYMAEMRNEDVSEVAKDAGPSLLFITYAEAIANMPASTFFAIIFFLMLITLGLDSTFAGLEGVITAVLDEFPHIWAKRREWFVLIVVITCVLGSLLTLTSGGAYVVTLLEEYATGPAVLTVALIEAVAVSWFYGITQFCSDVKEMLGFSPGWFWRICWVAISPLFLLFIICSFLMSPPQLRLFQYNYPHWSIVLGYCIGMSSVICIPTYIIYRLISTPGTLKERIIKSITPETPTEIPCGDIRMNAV
assay.info: Inhibition of [3H]serotonin reuptake in rat brain synaptosomes SERT after 15 mins by TopCount scintillation counting method
pIC50: −log10 of the molar value.
Binary call on pIC50: met from 7 upward, not met beneath that.

The examples below pair each entry with its known result.
[
  {
    "smiles.text": "Fc1cccc(-c2ccc(F)cc2N2CCN(CCCc3c[nH]c4ccc(F)cc34)CC2)c1",
    "label": "met"
  },
  {
    "smiles.text": "Fc1ccc(-c2ccccc2N2CCN(CCc3c[nH]c4ccc(F)cc34)CC2)cc1",
    "label": "not met"
  }
]

Now turn to the next compound.
Reported pIC50 at or above 7? Fc1cccc(-c2c(F)cccc2N2CCN(CCCc3c[nH]c4ccc(F)cc34)CC2)c1
met

* * *

assay.info: MRT (0 to t) in Sprague-Dawley rat at 2 mg/kg, po administered as single dose by LC-MS/MS analysis
Assay type: ADME, organism-based
condition.summary: in vivo
observable: MRT last (h)
Reply with just the number (in h).

Item Fc1ccc(N2CCN(CCCc3c[nH]c4ccc(F)cc34)CC2)c(-c2ccccc2)c1 has what recorded MRT last?
4.3

* * *

system.name: 5-hydroxytryptamine receptor 7 (Homo sapiens, UniProt P34969)
Sequence (P34969 whole entry): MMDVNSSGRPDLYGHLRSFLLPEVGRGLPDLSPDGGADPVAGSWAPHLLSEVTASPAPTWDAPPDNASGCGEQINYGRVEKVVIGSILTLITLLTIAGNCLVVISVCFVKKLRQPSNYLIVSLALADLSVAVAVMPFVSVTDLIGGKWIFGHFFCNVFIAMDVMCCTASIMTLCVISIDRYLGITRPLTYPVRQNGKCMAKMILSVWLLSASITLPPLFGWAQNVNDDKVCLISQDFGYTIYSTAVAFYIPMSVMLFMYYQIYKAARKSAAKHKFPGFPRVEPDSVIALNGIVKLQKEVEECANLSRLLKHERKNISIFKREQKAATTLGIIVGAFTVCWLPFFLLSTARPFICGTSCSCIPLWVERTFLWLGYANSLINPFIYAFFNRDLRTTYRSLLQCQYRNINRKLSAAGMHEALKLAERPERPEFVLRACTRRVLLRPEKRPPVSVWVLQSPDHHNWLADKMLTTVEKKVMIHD
assay.info: Displacement of [3H]LSD from recombinant human 5-HT7 receptor expressed in CHO cell membranes at 10 uM after 120 mins by TopCount scintillation counting method relative to control
observable: inhibition (%)
// note: answer is a bare numeric in %

[
  {
    "smiles.text": "Cc1cccc(-c2ccccc2N2CCN(CCc3c[nH]c4ccc(F)cc34)CC2)c1",
    "result.value": 97.3
  },
  {
    "smiles.text": "COc1ccccc1N1CCN(CCc2coc3ccccc23)CC1",
    "result.value": 85.6
  },
  {
    "smiles.text": "Cc1ccc(-c2ccccc2N2CCN(CCc3c[nH]c4ccc(F)cc34)CC2)cc1",
    "result.value": 99.5
  }
]

GET /values?readout=inhibition&item= c1ccc(-c2ccccc2N2CCN(CCc3cc4ccccc4o3)CC2)cc1
96.4

// repeat for CSc1ccccc1N1CCN(CCc2coc3ccccc23)CC1 and report
86.8

And for Fc1cccc(-c2cc(F)ccc2N2CCN(CCCCc3c[nH]c4ccc(F)cc34)CC2)c1 ?
97.5

* * *

assay.info: Apparent clearance during terminal phase in Sprague-Dawley rat at 2 mg/kg, po administered as single dose by LC-MS/MS analysis
Type: ADME, organism-based
condition.summary: in vivo, read-out: CLz/F (converted)
observable: CL/F (mL/min/kg)
Value expressed in mL/min/kg; do not type the unit.

Record request: CL/F value, item Fc1ccc(N2CCN(CCCc3c[nH]c4ccc(F)cc34)CC2)c(-c2ccccc2)c1
40

* * *

assay.info: Tmax in Sprague-Dawley rat at 2 mg/kg, po administered as single dose by LC-MS/MS analysis
Type: ADME, organism-based
condition.summary: in vivo
observable: Tmax (h)
Report only the number, with the unit h understood.

What does the record list as Tmax for Fc1ccc(N2CCN(CCCc3c[nH]c4ccc(F)cc34)CC2)c(-c2ccccc2)c1 ?
1.7

* * *

system.name: 5-hydroxytryptamine receptor 7 (Homo sapiens, UniProt P34969)
assay.info: Displacement of [3H]LSD from recombinant human 5-HT7 receptor expressed in CHO cell membranes after 120 mins by TopCount scintillation counting method
pKi: −log10 of the molar value.
Answer no if pKi is under 9, and yes if it is 9 or more.

[
  {
    "smiles.text": "Fc1cccc(-c2ccc(F)cc2N2CCN(CCCc3c[nH]c4ccc(F)cc34)CC2)c1",
    "system.name": "5-hydroxytryptamine receptor 7 (Homo sapiens, UniProt P34969)",
    "label": "no"
  },
  {
    "smiles.text": "Fc1cccc(-c2cc(F)ccc2N2CCN(CCCc3c[nH]c4ccc(F)cc34)CC2)c1",
    "system.name": "5-hydroxytryptamine receptor 7 (Homo sapiens, UniProt P34969)",
    "label": "no"
  },
  {
    "smiles.text": "Fc1ccc2[nH]cc(CCN3CCN(c4ccccc4-c4ccccc4F)CC3)c2c1",
    "system.name": "5-hydroxytryptamine receptor 7 (Homo sapiens, UniProt P34969)",
    "label": "no"
  }
]

Is it the case that Fc1ccc(N2CCN(CCCc3c[nH]c4ccc(F)cc34)CC2)c(-c2ccccc2)c1 has pKi reaching or exceeding 9?
no

Then this compound: Fc1ccc2[nH]cc(CCN3CCN(c4ccccc4-c4ccccc4)CC3)c2c1
yes

* * *

system.name: Sodium-dependent serotonin transporter (Rattus norvegicus) (UniProt P31652)
assay.info: Inhibition of [3H]serotonin reuptake in rat brain synaptosomes SERT at 10 uM after 15 mins by TopCount scintillation counting method relative to control
Assay type: subcellular
inhibition by entry:

Record excerpt, results attached:
[
  {
    "smiles.text": "Fc1cccc(-c2ccccc2N2CCN(CCc3c[nH]c4ccc(F)cc34)CC2)c1",
    "result.value": "> 90%"
  },
  {
    "smiles.text": "Fc1cccc(-c2ccccc2N2CCN(CCCc3c[nH]c4ccc(F)cc34)CC2)c1",
    "result.value": "> 90%"
  },
  {
    "smiles.text": "N#Cc1ccc2[nH]cc(CCN3CCN(c4ccccc4-c4ccccc4)CC3)c2c1",
    "result.value": "> 90%"
  },
  {
    "smiles.text": "CSc1ccccc1N1CCN(CCc2coc3ccccc23)CC1",
    "result.value": "112%"
  }
]

So what does the record say about inhibition for Fc1ccc2[nH]cc(CCN3CCN(c4ccccc4-c4ccccc4F)CC3)c2c1 ?
> 90%

* * *

assay.info: Plasma concentration in Sprague-Dawley rat at 2 mg/kg, po administered as single dose measured after 6 hrs by LC-MS/MS analysis
Type: ADME, organism-based
observable: concentration at 6 h

Could you share which concentration at 6 h value was measured for Fc1ccc(N2CCN(CCCc3c[nH]c4ccc(F)cc34)CC2)c(-c2ccccc2)c1 ?
64.7 ng/mL

* * *

system.name: 5-hydroxytryptamine receptor 7 (Homo sapiens, UniProt P34969)
assay.info: Displacement of [3H]LSD from recombinant human 5-HT7 receptor expressed in CHO cell membranes at 10 uM after 120 mins by TopCount scintillation counting method relative to control
observable: inhibition (%)
Answer format: numeric, % implied, no suffix.

[
  {
    "smiles.text": "Fc1ccc(-c2ccccc2N2CCN(CCc3c[nH]c4ccc(F)cc34)CC2)cc1",
    "system.name": "5-hydroxytryptamine receptor 7 (Homo sapiens, UniProt P34969)",
    "inhibition [%]": 94.9
  }
]

Param readout = inhibition; param system = 5-hydroxytryptamine receptor 7 (Homo sapiens, UniProt P34969); param query = Fc1cccc(-c2ccccc2N2CCN(CCc3c[nH]c4ccc(F)cc34)CC2)c1 ; response: value
0.79

Check c1ccc(-c2ccccc2N2CCN(CCc3coc4ccccc34)CC2)cc1 too.
102

# repeat for N#Cc1ccc2[nH]cc(CCN3CCN(c4ccccc4-c4ccccc4)CC3)c2c1
93.7

Please give the result for c1ccc(-c2cccc(N3CCN(CCc4coc5ccccc45)CC3)c2)cc1 too.
71.9

Repeat with N#Cc1ccc(-c2ccccc2N2CCN(CCc3c[nH]c4ccc(F)cc34)CC2)cc1
97.3

Can you check COc1ccc(-c2ccccc2N2CCN(CCc3c[nH]c4ccc(F)cc34)CC2)cc1 next?
94.7

* * *

assay.info: Plasma concentration in Sprague-Dawley rat at 2 mg/kg, po administered as single dose measured after 15 mins by LC-MS/MS analysis
Assay type: ADME, organism-based
observable: concentration at […]
Entry format: amount then unit.

Which concentration at […] reading was recorded for the compound Fc1ccc(N2CCN(CCCc3c[nH]c4ccc(F)cc34)CC2)c(-c2ccccc2)c1 ?
20.4 ng/mL

* * *

system.name: Sodium-dependent serotonin transporter (Rattus norvegicus) (UniProt P31652)
assay.info: Inhibition of [3H]serotonin reuptake in rat brain synaptosomes SERT at 10 uM after 15 mins by TopCount scintillation counting method relative to control
Format: subcellular
observable: inhibition

# annotated cases, reported inhibition shown
[
  {
    "smiles.text": "Cc1ccc(-c2ccccc2N2CCN(CCc3c[nH]c4ccc(F)cc34)CC2)cc1",
    "observable": "inhibition",
    "result.value": "> 90%"
  },
  {
    "smiles.text": "c1ccc(-c2ccccc2N2CCN(CCc3coc4ccccc34)CC2)cc1",
    "observable": "inhibition",
    "result.value": "> 90%"
  },
  {
    "smiles.text": "Fc1ccc(N2CCN(CCCc3c[nH]c4ccc(F)cc34)CC2)c(-c2ccccc2)c1",
    "observable": "inhibition",
    "result.value": "> 90%"
  },
  {
    "smiles.text": "c1ccc(-c2cccc(N3CCN(CCc4coc5ccccc45)CC3)c2)cc1",
    "observable": "inhibition",
    "result.value": "99.4%"
  },
  {
    "smiles.text": "Fc1ccc2[nH]cc(CCCN3CCN(c4ccccc4-c4ccccc4)CC3)c2c1",
    "observable": "inhibition",
    "result.value": "> 90%"
  },
  {
    "smiles.text": "Fc1cccc(-c2ccc(F)cc2N2CCN(CCCc3c[nH]c4ccc(F)cc34)CC2)c1",
    "observable": "inhibition",
    "result.value": "> 90%"
  },
  {
    "smiles.text": "COc1ccccc1N1CCN(CCc2coc3ccccc23)CC1",
    "observable": "inhibition",
    "result.value": "110%"
  },
  {
    "smiles.text": "Fc1ccc(-c2ccccc2N2CCN(CCc3c[nH]c4ccc(F)cc34)CC2)cc1",
    "observable": "inhibition",
    "result.value": "> 90%"
  }
]

Please give the measured inhibition for this compound: N#Cc1ccc(-c2ccccc2N2CCN(CCc3c[nH]c4ccc(F)cc34)CC2)cc1
84.2%

Also need Fc1cccc(-c2cc(F)ccc2N2CCN(CCCCc3c[nH]c4ccc(F)cc34)CC2)c1 , thanks.
> 90%

COc1ccc(-c2ccccc2N2CCN(CCc3c[nH]c4ccc(F)cc34)CC2)cc1 ?
82.8%

Input Fc1cccc(-c2c(F)cccc2N2CCN(CCCc3c[nH]c4ccc(F)cc34)CC2)c1
> 90%

// query: Cc1cccc(-c2ccccc2N2CCN(CCc3c[nH]c4ccc(F)cc34)CC2)c1
> 90%

Try this compound next: Fc1cccc(-c2cc(F)ccc2N2CCN(CCCc3c[nH]c4ccc(F)cc34)CC2)c1
> 90%

Request: Fc1ccc2[nH]cc(CCN3CCN(c4ccccc4-c4ccccc4)CC3)c2c1
> 90%

One more compound: c1ccc(-c2ccccc2N2CCN(CCc3cc4ccccc4o3)CC2)cc1
> 90%
